Assay: Affinity constant log beta-3 value for Fe(III) complex
Assay type: ADME
Value kind: Log beta3

{"Compound": "O=c1ccn(CCCO)c(CO)c1O", "Log beta3": 35.3}
{"Compound": "CCn1ccc(=O)c(O)c1C(C)O (stereo unspecified)", "Log beta3": 35.1}
{"Compound": "Cc1cc(=O)c(O)c(CO)n1C", "Log beta3": 35.5}
{"Compound": "CCn1c(C)cc(=O)c(O)c1CO", "Log beta3": 35.6}
{"Compound": "CCn1ccc(=O)c(O)c1CO", "Log beta3": 35.3}
{"Compound": "CCc1c(O)c(=O)ccn1CC", "Log beta3": 36.8}
{"Compound": "CC(O)c1c(O)c(=O)ccn1CCCO (stereo unspecified)", "Log beta3": 34.7}
{"Compound": "Cn1ccc(=O)c(O)c1CO", "Log beta3": 35.3}
{"Compound": "Cc1c(O)c(=O)ccn1C [DEFERIPRONE]", "Log beta3": 36.4}
{"Compound": "Cc1cc(=O)c(O)c(C(C)O)n1C (stereo unspecified)", "Log beta3": 35.5}
{"Compound": "CCC(O)c1c(O)c(=O)cc(C)n1C (stereo unspecified)", "Log beta3": 35}

* * *

Test: Ligand pka2 value was investigated by spectrophotometric titration
Format: physicochemical
Conditions: read-out: pKa2
Value kind: pKa
When you answer, write just the number.

Which pKa reading was recorded for the compound Cn1ccc(=O)c(O)c1CO ?
9.11

* * *

Experiment: Ligand pka2 value was investigated by potentiometric titration
Type: physicochemical
Conditions: read-out: pKa2
Value kind: pKa

{"Compound": "Cc1c(O)c(=O)ccn1C", "pKa": 9.77}
{"Compound": "CCC(O)c1c(O)c(=O)cc(C)n1C (stereo unspecified)", "pKa": 9}
{"Compound": "CC(O)c1c(O)c(=O)ccn1CCCO (stereo unspecified)", "pKa": 8.72}
{"Compound": "CCn1ccc(=O)c(O)c1C(C)O (stereo unspecified)", "pKa": 8.77}
{"Compound": "Cn1ccc(=O)c(O)c1CO", "pKa": 9.11}
{"Compound": "Cc1cc(=O)c(O)c(C(C)O)n1C (stereo unspecified)", "pKa": 8.99}
{"Compound": "CCn1c(C)cc(=O)c(O)c1CO", "pKa": 9.45}
{"Compound": "Cc1cc(=O)c(O)c(CO)n1C", "pKa": 9.44}
{"Compound": "O=c1ccn(CCCO)c(CO)c1O", "pKa": 9.29}
{"Compound": "CCc1c(O)c(=O)ccn1CC", "pKa": 9.93}
{"Compound": "CCn1ccc(=O)c(O)c1CO", "pKa": 9.27}

* * *

Experiment: Ligand pka1 value was investigated by potentiometric titration
Format: physicochemical
Conditions: read-out: pKa1
Value kind: pKa

{"Compound": "Cc1cc(=O)c(O)c(CO)n1C", "pKa": 3.32}
{"Compound": "CCn1c(C)cc(=O)c(O)c1CO", "pKa": 3.29}
{"Compound": "CCn1ccc(=O)c(O)c1C(C)O (stereo not given)", "pKa": 3.03}
{"Compound": "CCc1c(O)c(=O)ccn1CC", "pKa": 3.81}
{"Compound": "CCn1ccc(=O)c(O)c1CO", "pKa": 2.8}
{"Compound": "Cn1ccc(=O)c(O)c1CO", "pKa": 2.92}
{"Compound": "O=c1ccn(CCCO)c(CO)c1O", "pKa": 3.02}
{"Compound": "Cc1cc(=O)c(O)c(C(C)O)n1C (stereo not given)", "pKa": 3.54}
{"Compound": "CCC(O)c1c(O)c(=O)cc(C)n1C (stereo not given)", "pKa": 3.76}
{"Compound": "CC(O)c1c(O)c(=O)ccn1CCCO (stereo not given)", "pKa": 2.98}
